System: KB-Gem cells
Test: 72 h viability assay, gemcitabine-resistant KB clone
Type: cell-based
Settings: Homo sapiens, read-out: IC50, toxicity assay
For each entry below, report its IC50 value.
Answers are plain numbers, in µM.

COMPOUND | DISPLAY UNIT | IC50
O=C(Nc1nc(-c2ccc(O)c(O)c2)c(-c2ccccc2)s1)c1ccc(O)c(O)c1 [COH29] | µM | 8

Could you now look at the following compound, please?
IC50 measured on Nc1ccn([C@@H]2O[C@H](CO)[C@@H](O)C2(F)F)c(=O)n1 [Gem, gemcitabine] = 1000

* * *

Target: recombinant hRRM2/hRRM1 (Homo sapiens)
Sequence (P31350 whole entry): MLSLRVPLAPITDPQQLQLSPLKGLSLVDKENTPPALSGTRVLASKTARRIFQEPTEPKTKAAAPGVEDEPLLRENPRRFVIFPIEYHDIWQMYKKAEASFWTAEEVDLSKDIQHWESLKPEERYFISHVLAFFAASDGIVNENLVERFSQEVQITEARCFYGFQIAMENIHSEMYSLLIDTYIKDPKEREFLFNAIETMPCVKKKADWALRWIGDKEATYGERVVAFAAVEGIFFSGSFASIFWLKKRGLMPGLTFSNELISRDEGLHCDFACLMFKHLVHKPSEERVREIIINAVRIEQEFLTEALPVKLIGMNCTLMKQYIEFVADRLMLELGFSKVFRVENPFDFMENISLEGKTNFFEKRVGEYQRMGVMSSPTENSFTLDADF
Assay: [3H] CDP reduction assay, recombinant hRRM2/hRRM1
VALUE TYPE: pIC50
Numbers only, as −log10 of the molar value.

# pIC50 measured on recombinant hRRM2/hRRM1 (Homo sapiens) for item `O=C(Nc1nc(-c2ccc(O)c(O)c2)c(-c2ccccc2)s1)c1ccc(O)c(O)c1` = 4.80

* * *

System: KB-HURs cells
Assay: 72 h viability assay, HU-resistant KB clone
Type: cell-based, human
Conditions: Homo sapiens, read-out: IC50, toxicity assay
VALUE TYPE: pIC50
Answers are plain numbers, as −log10 of the molar value.

# pIC50 measured on KB-HURs cells for item `O=C(Nc1nc(-c2ccc(O)c(O)c2)c(-c2ccccc2)s1)c1ccc(O)c(O)c1` = 5.10

* * *

Assay: Pharmacokinetics in mice, HPLC-MS/MS of plasma
Type: in vivo, mouse
Conditions: female, Balb/c nude, mouse, plasma, po, 800 mg/kg
VALUE TYPE: concentration at 24 h

concentration at 24 h measured on O=C(Nc1nc(-c2ccc(O)c(O)c2)c(-c2ccccc2)s1)c1ccc(O)c(O)c1 [COH29] = ~200 nM

* * *

Assay: Pharmacokinetics in mice, HPLC-MS/MS of plasma
Assay type: in vivo, mouse
Details: female, Balb/c nude, mouse, plasma, po, 800 mg/kg
VALUE TYPE: Tmax (min)
One number for each entry, in min.

Tmax measured on O=C(Nc1nc(-c2ccc(O)c(O)c2)c(-c2ccccc2)s1)c1ccc(O)c(O)c1 [COH29] = 30

The measured values listed here are drawn from paper PMC3823501.
